B1: glmS ribozyme (parent)
chain: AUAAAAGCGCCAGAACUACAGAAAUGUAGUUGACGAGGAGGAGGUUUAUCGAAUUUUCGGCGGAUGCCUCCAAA

Variants of: B1
run description: self-cleavage kobs at 640 uM GlcN6P; higher = faster cleavage; RNA array
details: with glucosamine-6-phosphate
Fewer inactive variants are shown than the library holds.
measurement name: self-cleavage kobs at 640 uM GlcN6P

Field: example entries. Status: answers known.
INSERT INTO assay_data (variant_description, result) VALUES
  ('A14G U31G G41C', '< 1e-05 s⁻¹'),
  ('G43C U57A C70G', '< 1e-05 s⁻¹'),
  ('C11U A15G C34U U57C C71A', '< 1e-05 s⁻¹'),
  ('U56A C58G G59A G60A', '< 1e-05 s⁻¹'),
  ('G59A G63C', '< 1e-05 s⁻¹'),
  ('C8A G35A G59A C70U', '< 1e-05 s⁻¹'),
  ('U30A G40A C50U', '< 1e-05 s⁻¹'),
  ('A48U G60C C61U', '< 1e-05 s⁻¹');

Could I get self-cleavage kobs at 640 uM GlcN6P for every one of these entries?
1. A33C A36G G62U G66A
2. G7A U56G U69A

1: < 1e-05 s⁻¹; 2: 0.00091 s⁻¹

For each listed entry, give its self-cleavage kobs at 640 uM GlcN6P.
1. A6U C50A U65A U69C
2. U46A A48G C50U
3. A36U A53U U65A
4. U30A C71G
5. C8U G9C U31G A33C
6. A48G A52U G59U
7. C8G G32A A39G U54A

["8.83e-05 s⁻¹", "< 1e-05 s⁻¹", "< 1e-05 s⁻¹", "0.000371 s⁻¹", "< 1e-05 s⁻¹", "< 1e-05 s⁻¹", "< 1e-05 s⁻¹"]

Please give self-cleavage kobs at 640 uM GlcN6P, item by item, for the list that follows.
1. A42G C67G
2. C34U U55C
3. G44A U46A G62A
4. C11U U56A G66A
5. A15C U54C
6. U31C G35C G38U
7. G9U U30G G35U G51A

0.00232 s⁻¹
< 1e-05 s⁻¹
< 1e-05 s⁻¹
8.42e-05 s⁻¹
0.00131 s⁻¹
< 1e-05 s⁻¹
< 1e-05 s⁻¹

// data source = the supplement of paper PMC7125110
